SYSTEM_TESTED: T1, orthogonal hCD122 receptor (hoRb), hCD122 with H133D and Y134F (human, UniProt P14784 27-550); also: reference of the scale not given here
T1 sequence: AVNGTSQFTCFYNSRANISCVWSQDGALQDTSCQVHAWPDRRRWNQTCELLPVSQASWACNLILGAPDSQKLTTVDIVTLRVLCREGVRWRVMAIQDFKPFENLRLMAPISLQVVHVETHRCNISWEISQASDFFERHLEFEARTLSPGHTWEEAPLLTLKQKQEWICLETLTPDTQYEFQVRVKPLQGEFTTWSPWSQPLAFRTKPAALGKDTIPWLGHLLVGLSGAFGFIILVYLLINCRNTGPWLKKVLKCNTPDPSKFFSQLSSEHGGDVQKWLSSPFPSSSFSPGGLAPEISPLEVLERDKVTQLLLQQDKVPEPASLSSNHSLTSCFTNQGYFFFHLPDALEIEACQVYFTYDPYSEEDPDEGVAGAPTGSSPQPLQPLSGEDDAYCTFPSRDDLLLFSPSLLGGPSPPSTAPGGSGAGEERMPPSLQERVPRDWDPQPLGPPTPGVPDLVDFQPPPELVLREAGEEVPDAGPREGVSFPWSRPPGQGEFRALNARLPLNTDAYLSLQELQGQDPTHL
ASSAY_NOTES: cell-based or functional assay
MEASURED_QUANTITY: Relative Proliferation Fold Change 3F8 1:2 (fold)

BINDER	OBSERVED_VALUE
Q126I, SQVLKA (ligand) APTSSSTKKTQLQLSQLLVLLKAILNGINNYKNPKLTRMLTFKFYMPKKATELKHLQCLEEELKPLEEVLNLAQSKNFHLRPRDLISNINVIVLELKGSETTFMCEYADETATIVEFLNRWITFCISIISTLT	30

1 = ΔL14, SQVLKA (ligand) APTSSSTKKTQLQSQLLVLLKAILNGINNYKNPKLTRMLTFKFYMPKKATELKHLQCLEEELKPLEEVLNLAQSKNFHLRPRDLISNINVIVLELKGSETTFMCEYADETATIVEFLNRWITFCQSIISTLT
2 = T3P, SQVLKA (ligand) APPSSSTKKTQLQLSQLLVLLKAILNGINNYKNPKLTRMLTFKFYMPKKATELKHLQCLEEELKPLEEVLNLAQSKNFHLRPRDLISNINVIVLELKGSETTFMCEYADETATIVEFLNRWITFCQSIISTLT
Query: Could you kindly indicate whether 1 or 2 has the higher Relative Proliferation Fold Change 3F8 1:2 value? Provide the label of your selected option as the answer.
Result: 1
(1: 125 fold, 2: 33.9 fold)
